Data provenance: ChEMBL document CHEMBL1961873

Target: Tyrosine-protein kinase Fgr (Homo sapiens) (UniProt P09769);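 note: value reported as mean kinase inhibition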
Sequence (P09769 2-529 limits assumed): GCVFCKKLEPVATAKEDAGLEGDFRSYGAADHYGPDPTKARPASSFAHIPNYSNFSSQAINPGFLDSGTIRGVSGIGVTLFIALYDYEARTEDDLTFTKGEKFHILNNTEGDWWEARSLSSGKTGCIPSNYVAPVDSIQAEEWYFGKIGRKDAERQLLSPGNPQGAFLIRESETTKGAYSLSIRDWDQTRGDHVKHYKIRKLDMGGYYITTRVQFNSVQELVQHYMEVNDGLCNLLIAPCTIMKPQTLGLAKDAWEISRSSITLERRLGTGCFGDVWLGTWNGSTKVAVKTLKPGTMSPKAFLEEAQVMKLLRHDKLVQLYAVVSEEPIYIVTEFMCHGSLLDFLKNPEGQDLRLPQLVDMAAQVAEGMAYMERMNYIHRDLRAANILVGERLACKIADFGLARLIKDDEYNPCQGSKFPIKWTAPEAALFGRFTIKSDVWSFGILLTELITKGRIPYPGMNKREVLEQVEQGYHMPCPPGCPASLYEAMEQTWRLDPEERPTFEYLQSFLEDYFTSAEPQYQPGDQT
Conditions: at 1 µM
PROPERTY: inhibition (%)
Give bare numbers, in %.

The following compounds have reported results that may help.
{"COMPOUND": "O=C1NC(=O)C(c2ccccc2Cl)=C1Nc1cccc(O)c1", "NUMERIC_READOUT": 2.07}
{"COMPOUND": "COc1cc2c(cc1Nc1nc(N3CCc4ccccc43)c3cc[nH]c3n1)N(C(=O)CN(C)C)CC2", "NUMERIC_READOUT": 3.44}
{"COMPOUND": "CN1CCC(C(=O)Nc2n[nH]c3nnc(-c4ccccc4)cc23)CC1", "NUMERIC_READOUT": 4.46}
{"COMPOUND": "NC(=O)c1cccc(Nc2nccc(Nc3cccc4[nH]ncc34)n2)c1", "NUMERIC_READOUT": 76.7}
{"COMPOUND": "CCN1CCC(CC(=O)Nc2n[nH]c3nc(-c4cccs4)c(Br)cc23)CC1", "NUMERIC_READOUT": 0.5}
{"COMPOUND": "CC1=C(C(=O)Nc2ccc3[nH]ncc3c2)C(c2ccc3ccccc3c2)CC(=O)N1 (configuration not stated)", "NUMERIC_READOUT": 15.1}
{"COMPOUND": "O=C(Nc1n[nH]c2nc(-c3ccco3)c(Br)cc12)C1CC1", "NUMERIC_READOUT": 11.3}
{"COMPOUND": "COc1ccc2cc(-c3c(-c4ccncc4)nc(-c4ccc([S+](C)[O-])cc4)n3C)ccc2c1 (configuration not stated)", "NUMERIC_READOUT": 6.14}
{"COMPOUND": "COc1cc2ncn(-c3cc(O[C@H](C)c4ccccc4Cl)c(C(N)=O)s3)c2cc1OC", "NUMERIC_READOUT": 17.3}
{"COMPOUND": "Cc1ccc(NC(=O)c2ccnc(N3CCCC3)c2)cc1-c1ccc(C(=O)NCC2CC2)cc1", "NUMERIC_READOUT": 6.32}

Please supply inhibition for each of the following items, keeping them in order.
1. NS(=O)(=O)c1ccc(N/N=C2\C(=O)Nc3ccc(C(=O)NCCc4c[nH]cn4)cc32)cc1
2. COC(=O)Nc1nc2cc(Oc3cccc(NC(=O)Nc4cc(C(F)(F)F)ccc4F)c3)ccc2[nH]1
3. COc1ccc(-c2ccncc2)cc1C(N)=O
4. CCn1c(-c2nonc2N)nc2c(C#CC(C)(C)O)nc(OC[C@@H](N)c3ccccc3)cc21
5. CNC(=O)c1cncc(/C=C/c2c(Cl)cccc2Cl)c1
6. CC1=C(C(=O)Nc2ccc3[nH]ncc3c2)C(c2ccc(F)cc2)NC(=O)N1 (configuration not stated)

# output
19.1
3.3
4.6
10.2
21.3
0.7

Please supply inhibition for each of the following items, keeping them in order.
1. Cn1cc(C=C2C(=O)Nc3cccnc32)c2ccccc21
2. CCCN1CCC(Oc2cc(Nc3nc(Nc4cccc(F)c4C(N)=O)c4cc[nH]c4n3)c(OC)cc2Cl)CC1
3. COc1ccccc1Nc1ncc(-c2ccccc2)o1
4. CS(=O)(=O)CCNCc1ccc(-c2ccc3ncnc(Nc4ccc(OCc5ccccc5)c(Cl)c4)c3c2)o1

# output
[44, 4.19, 12.1, 11.5]

Please supply inhibition for each of the following items, keeping them in order.
1. CS(=O)(=O)CCNCc1nc(-c2ccc3ncnc(Nc4ccc(F)c(Cl)c4)c3c2)cs1
2. COc1cc(C=NNc2ncnc3c2cnn3-c2ccccc2)ccc1O

# output
1: 10.6; 2: 49.6
